Attribution: the supplement of paper PMC10567573

test: protein stability index of a GFP-peptide fusion (GPS, HEK-293T) (PSI 1-6); higher = more stable; settings: treatment: MLN4924 1 uM, 8 h; c terminus: a fixed tail appended;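 also: 24-mer peptide tiles fused after GFP, lentivirally expressed, FACS-sorted into six equal bins by GFP/DsRed ratio, decoded by Illumina sequencing, PSI is the read-weighted mean bin number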
Entries get a class label from measured protein stability index. See ranges: A (below 3), B (3 to below 5), C (5 or more)

>  <Residues>
LPEDDGLEQDLQQVMVSGPNLNET [ARFIP2]

>  <Cat>
C

$$$$
>  <Residues>
SGPEEPLLEEEEKQWGPLEREPVR [RTN2]

>  <Cat>
C

$$$$
>  <Residues>
EGKSRHVDFQCVKSKSITNLAAAA [BTBD10]

>  <Cat>
B

$$$$
>  <Residues>
KEPVIIECGHNFCKACITRWWEDL [TRIM39]

>  <Cat>
A

$$$$
>  <Residues>
TVEEAKAEKETELSLQKEQLQLKI [TRIM29]

>  <Cat>
C

$$$$
>  <Residues>
QEDKALWEEEKALWVEERALLEGE [CCDC70]

>  <Cat>
C

$$$$
>  <Residues>
KLKNDTENHQPVSLSDLEIQASAG [ZNF75A]

>  <Cat>
C

$$$$
>  <Residues>
RMLVAASWACAFTNALTHTVAMST [OR3A1]

>  <Cat>
B

$$$$
>  <Residues>
GLLQLDHRGLRCSWEGLAVLDSLL [RSAD1]

>  <Cat>
A

$$$$
>  <Residues>
SQSILPLEHGSIYIPSSYVDSHHE [ESR2]

>  <Cat>
B

$$$$
>  <Residues>
LCALPVHVAVEHQLPPASRCVLVF [SOAT2]

>  <Cat>
A

$$$$
>  <Residues>
CMKIPTGQEYAAKIINTKKLSARD [CAMK2D]

>  <Cat>
B

$$$$
>  <Residues>
EVPEMSPVTCCDVSSNNRLVVTGS [TLE6]

>  <Cat>
B

$$$$
>  <Residues>
SIARLEMGPDEYEEMEEEEEEEEE [FBXO3]

>  <Cat>
C

$$$$
>  <Residues>
AEETANLPPSPPPSPASEQTVTVE [MAP2]

>  <Cat>
C

$$$$
>  <Residues>
QRAEMLPKTSGTRATSLGRPEEEE [CPOX]

>  <Cat>
C

$$$$
>  <Residues>
FYFENALSKSNKPIHTIILNPHVH [CAMK2D]

>  <Cat>
A

$$$$
>  <Residues>
MSRMQSKEYPVVPRSTVRQKVASN [TBX5]

>  <Cat>
B

$$$$
>  <Residues>
GQLDEKEKDLVGLAQIAEVLEMFD [RHOBTB1]

>  <Cat>
B

$$$$
>  <Residues>
DKQKLKRTEIISRSWFPSAPGSAS [YJU2B]

>  <Cat>
B

$$$$
>  <Residues>
FCLQKLISLHPFNPWNWGKLAEAY [C8orf76]

>  <Cat>
A

$$$$
>  <Residues>
LFPNAKKEHVPTWLQNTHVYSWPK [TRAF3IP2]

>  <Cat>
A

$$$$
>  <Residues>
VQITGQPNILFYASTVLKSVGFQS [SLC2A12]

>  <Cat>
A

$$$$
>  <Residues>
FARNGALSTHNWTYWQCGQYLGVG [RSAD1]

>  <Cat>
A

$$$$

* * *

test: protein stability index of a GFP-peptide fusion (GPS, HEK-293T) (PSI 1-6); higher = more stable; conditions: treatment: DMSO; c terminus: a fixed tail appended
Entries get a class label from measured protein stability index. See ranges: bottom range = under 3, center range = from 3 up to 4, top range = 4 and over

>  <Residues>
TSLFLGNGVLLCFYSQEWYARQHC [SOAT1]

>  <Cat>
bottom range

$$$$
>  <Residues>
RERKKLVLENLEDSCVLTGPDDSL [TRIB3]

>  <Cat>
top range

$$$$
>  <Residues>
LGLLFERHWHRPVLMAVSVHSERK [SCNN1D]

>  <Cat>
bottom range

$$$$
>  <Residues>
QIVTKKIDLSHVTSKCGSLKNIRH [MAP2]

>  <Cat>
bottom range

$$$$
>  <Residues>
AMGDHSKKKPGTAMCVGCGSQIHD [ISL2]

>  <Cat>
top range

$$$$
>  <Residues>
LKTADWRVFLFQAPSKEEMLSWIL [PSD2]

>  <Cat>
bottom range

$$$$
>  <Residues>
DGISIPELREACDYLCISFEYSTI [BTBD10]

>  <Cat>
center range

$$$$
>  <Residues>
KATMQNLNDRLASYLDKVRALEEA [KRT17]

>  <Cat>
center range

$$$$
>  <Residues>
QVADVPEKPRVPAFACQVAGCCQV [ZNF511]

>  <Cat>
center range

$$$$
>  <Residues>
DDYLHKDTGETSMLKRPVLLHLHQ [STEAP1]

>  <Cat>
center range

$$$$
>  <Residues>
AVLFTGIVALYIASGLTGFIGLEV [ATL3]

>  <Cat>
center range

$$$$
>  <Residues>
VQARMLSSTTILVQWKEPEEPNGQ [PTPRD]

>  <Cat>
center range

$$$$
>  <Residues>
FPPEGNMEDKEMTGPQLPESLEDV [ZNF263]

>  <Cat>
top range

$$$$
>  <Residues>
YCLLSDHGCEYSCVNMDRSFACQC [MATN2]

>  <Cat>
bottom range

$$$$
>  <Residues>
RPELGAALGIYGAPYAAAAAAQSY [IRX6]

>  <Cat>
bottom range

$$$$
>  <Residues>
SLSDLEIQASAGVISKKAKVKVPQ [ZNF75A]

>  <Cat>
top range

$$$$
>  <Residues>
AIVGGMALGVAGLAGLIGLAVSKS [FIS1]

>  <Cat>
center range

$$$$
>  <Residues>
ALAPKQELPSALESHEVPGTLSMG [ZNF24]

>  <Cat>
top range

$$$$
>  <Residues>
CRQRLIFEQTPALTKHEWTEALGC [ZNF8]

>  <Cat>
bottom range

$$$$
>  <Residues>
LTILPTEIETWVREHCPENRERVV [ZNF449]

>  <Cat>
center range

$$$$
>  <Residues>
VELLKNLTKYPTDRDSIWKCLKFL [INTS4]

>  <Cat>
bottom range

$$$$
>  <Residues>
KSELSDGIAILVGSNDRVQGVISQ [TRIM55]

>  <Cat>
center range

$$$$
>  <Residues>
THRDRPSQQQPLRNQVVSSTNGEL [CSNK1G1]

>  <Cat>
top range

$$$$
>  <Residues>
KSEEGHPFKAYLDVDITLSSEAFH [RTN3]

>  <Cat>
bottom range

$$$$
>  <Residues>
ELRDISSMAMEYFDEKIVPILKRK [FBXO28]

>  <Cat>
bottom range

$$$$
>  <Residues>
AGADLEHESEGGRTPLMKAARAGH [ANKRD17]

>  <Cat>
top range

$$$$
>  <Residues>
MNYSEIESKVREATNDDPWGPSGQ [CLINT1]

>  <Cat>
top range

$$$$
>  <Residues>
FKPACMSEIKNLERYMCSRFFIDF [TENT5D]

>  <Cat>
bottom range

$$$$
>  <Residues>
PGSNLNLLTNNSGTPKDHDSPENG [ETS2]

>  <Cat>
top range

$$$$
>  <Residues>
ALGPLRTPAPPLWIGLFLVATGSQ

>  <Cat>
bottom range

$$$$
>  <Residues>
GHGYDSKKQQELTAAVLGLICEGL [ZBED1]

>  <Cat>
bottom range

$$$$
>  <Residues>
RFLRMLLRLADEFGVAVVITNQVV [RAD51]

>  <Cat>
bottom range

$$$$
>  <Residues>
SEFLKRFVEATRKWKVGIPSDPLV [ALDH8A1]

>  <Cat>
bottom range

$$$$
>  <Residues>
TEGAFGLYRGLAPNFMKVIPAVSI [SLC25A25]

>  <Cat>
bottom range

$$$$
>  <Residues>
SAAGPPLSEDDKLQGAASHVPEGF [EHMT1]

>  <Cat>
top range

$$$$
>  <Residues>
GAGIIVTEAGGVLMDVTGGPFDLM [IMPA1]

>  <Cat>
bottom range

$$$$
>  <Residues>
LDEPNAESDYTYSSSYEQFNGELP [SRPK2]

>  <Cat>
top range

$$$$
>  <Residues>
RRGRHEQSPTSRPRKVSSLPPRSC [C22orf15]

>  <Cat>
top range

$$$$
>  <Residues>
KLGWGHFSTVWLCWDMQGKRFVAM [SRPK2]

>  <Cat>
bottom range

$$$$
>  <Residues>
QDLCCRAVVSCTPVHLVDKLPLPI [RAB40B]

>  <Cat>
bottom range

$$$$
>  <Residues>
PMDLSTVKRKMDGREYPDAQGFAA [BRD3]

>  <Cat>
top range

$$$$
>  <Residues>
QLLTLRELEMIGFIENNVSKLSLL [TRIP13]

>  <Cat>
bottom range

$$$$
>  <Residues>
SEGELGGPSEPGGTHPEDHQGHSD [RHOBTB2]

>  <Cat>
top range

$$$$
>  <Residues>
EEVSEVESFILDQDDLENPMLETA [ANKRD17]

>  <Cat>
top range

$$$$
>  <Residues>
LAEYCIKTKVPSNDNSSDLLYDDL [UBE2R2]

>  <Cat>
top range

$$$$
>  <Residues>
LDPSFPVEFVRHGDIIRLEHKETS [POMT2]

>  <Cat>
top range

$$$$
